meta.source: patent US20240270821A1

Molecular target: hGLP-1R (Homo sapiens, UniProt P43220)
Sequence (P43220 24-463): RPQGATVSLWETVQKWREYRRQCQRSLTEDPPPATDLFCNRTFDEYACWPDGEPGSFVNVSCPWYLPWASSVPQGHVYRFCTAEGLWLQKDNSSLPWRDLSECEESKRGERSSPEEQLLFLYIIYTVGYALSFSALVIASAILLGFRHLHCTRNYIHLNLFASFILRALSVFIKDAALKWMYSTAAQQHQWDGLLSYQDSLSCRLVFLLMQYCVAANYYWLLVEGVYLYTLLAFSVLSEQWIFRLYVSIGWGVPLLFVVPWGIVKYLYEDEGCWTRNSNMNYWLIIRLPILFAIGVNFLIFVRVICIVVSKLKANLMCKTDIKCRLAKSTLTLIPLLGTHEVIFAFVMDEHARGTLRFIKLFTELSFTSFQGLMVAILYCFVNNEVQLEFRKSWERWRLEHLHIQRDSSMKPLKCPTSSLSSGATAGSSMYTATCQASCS
Experiment: Functional cAMP activation in the presence of 0.1% casein (no HSA);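 further: intracellular cAMP rise after 30 min at 37 °C read by HTRF, normalized between buffer only (0%) and maximal control ligand (100%), four-parameter variable-slope fit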
Type: cell-based
Conditions: read-out: Relative cAMP EC50, hGLP-1R
Starred links: 1 amine or outer side, 2 acyl side, 3 side chain; linkers in the order of their positions; H or OH if unused. Non-standard residues stand in square brackets, D forms with d. Groups on a side chain read outwards from the residue. No end group written: not given here. *: point of attachment. C18 diacid = O=C(O)CCCCCCCCCCCCCCCCC(=O)*; αMePhe(2-F) = C[C@](N)(Cc1ccccc1F)C(=O)O; γGlu = O=C(O)[C@H](CCC(=O)[*:2])N[*:1]; αMeY = C[C@](N)(Cc1ccc(O)cc1)C(=O)O; 4Pal = N[C@@H](Cc1ccncc1)C(=O)O; αMeL = CC(C)C[C@](C)(N)C(=O)O; αMeS = C[C@](N)(CO)C(=O)O; Orn = NCCC[C@H](N)C(=O)O; Aib = CC(C)(N)C(=O)O
Listed next: entries and their corresponding EC50.
property_measured: EC50 (nM)

{"substance": "Y[Aib]QGT[αMePhe(2-F)]TSD[4Pal][αMeS]ILLD[Orn]K([γGlu-γGlu-C18 diacid])AQ[Aib][Orn]FI[dE][αMeY]LQEGGPSSGEPPPEGAE-NH2 [Example 546]", "system": "hGLP-1R (Homo sapiens, UniProt P43220)", "property_measured": "EC50", "reading_unit": "nM", "observed_measurement": 0.517}
{"substance": "H-Y[Aib]QGT[αMePhe(2-F)]TSD[4Pal][αMeS]I[αMeL]LD[Orn]K([γGlu-γGlu-C18 diacid])AQ[Aib][Orn]FI[dE][αMeY]LQEGGPSSGEPPPEGEEE-NH2 [Example 588]", "system": "hGLP-1R (Homo sapiens, UniProt P43220)", "property_measured": "EC50", "reading_unit": "nM", "observed_measurement": 0.613}
{"substance": "H-Y[Aib]QGT[αMePhe(2-F)]TSD[4Pal]SILLD[Orn]K([γGlu-γGlu-C18 diacid])AQ[Aib][Orn]FIEYLQEGGPSSGAPPPSGTEE-NH2 [Example 582]", "system": "hGLP-1R (Homo sapiens, UniProt P43220)", "property_measured": "EC50", "reading_unit": "nM", "observed_measurement": 0.298}
{"substance": "H-Y[Aib]QGT[αMePhe(2-F)]TSD[4Pal][αMeS]ILLD[Orn]K([γGlu-γGlu-C18 diacid])AQ[Aib][Orn]FI[dE]YLIEGGPSSGEPPPEGTEE-NH2 [Example 556]", "system": "hGLP-1R (Homo sapiens, UniProt P43220)", "property_measured": "EC50", "reading_unit": "nM", "observed_measurement": 0.561}
{"substance": "H-Y[Aib]QGT[αMePhe(2-F)]TSD[4Pal]SILLD[Orn]K([γGlu-γGlu-C18 diacid])AQ[Aib]AFIEYLEEGGPSSGAPPPSGTGE-NH2 [Example 514]", "system": "hGLP-1R (Homo sapiens, UniProt P43220)", "property_measured": "EC50", "reading_unit": "nM", "observed_measurement": 0.623}
